target: P-gp (Homo sapiens, UniProt P08183); experiment: Inhibition of binding of [3H]vinblastine to P-gp in MCF-7/Adr membranes
Sequence (P08183 whole entry): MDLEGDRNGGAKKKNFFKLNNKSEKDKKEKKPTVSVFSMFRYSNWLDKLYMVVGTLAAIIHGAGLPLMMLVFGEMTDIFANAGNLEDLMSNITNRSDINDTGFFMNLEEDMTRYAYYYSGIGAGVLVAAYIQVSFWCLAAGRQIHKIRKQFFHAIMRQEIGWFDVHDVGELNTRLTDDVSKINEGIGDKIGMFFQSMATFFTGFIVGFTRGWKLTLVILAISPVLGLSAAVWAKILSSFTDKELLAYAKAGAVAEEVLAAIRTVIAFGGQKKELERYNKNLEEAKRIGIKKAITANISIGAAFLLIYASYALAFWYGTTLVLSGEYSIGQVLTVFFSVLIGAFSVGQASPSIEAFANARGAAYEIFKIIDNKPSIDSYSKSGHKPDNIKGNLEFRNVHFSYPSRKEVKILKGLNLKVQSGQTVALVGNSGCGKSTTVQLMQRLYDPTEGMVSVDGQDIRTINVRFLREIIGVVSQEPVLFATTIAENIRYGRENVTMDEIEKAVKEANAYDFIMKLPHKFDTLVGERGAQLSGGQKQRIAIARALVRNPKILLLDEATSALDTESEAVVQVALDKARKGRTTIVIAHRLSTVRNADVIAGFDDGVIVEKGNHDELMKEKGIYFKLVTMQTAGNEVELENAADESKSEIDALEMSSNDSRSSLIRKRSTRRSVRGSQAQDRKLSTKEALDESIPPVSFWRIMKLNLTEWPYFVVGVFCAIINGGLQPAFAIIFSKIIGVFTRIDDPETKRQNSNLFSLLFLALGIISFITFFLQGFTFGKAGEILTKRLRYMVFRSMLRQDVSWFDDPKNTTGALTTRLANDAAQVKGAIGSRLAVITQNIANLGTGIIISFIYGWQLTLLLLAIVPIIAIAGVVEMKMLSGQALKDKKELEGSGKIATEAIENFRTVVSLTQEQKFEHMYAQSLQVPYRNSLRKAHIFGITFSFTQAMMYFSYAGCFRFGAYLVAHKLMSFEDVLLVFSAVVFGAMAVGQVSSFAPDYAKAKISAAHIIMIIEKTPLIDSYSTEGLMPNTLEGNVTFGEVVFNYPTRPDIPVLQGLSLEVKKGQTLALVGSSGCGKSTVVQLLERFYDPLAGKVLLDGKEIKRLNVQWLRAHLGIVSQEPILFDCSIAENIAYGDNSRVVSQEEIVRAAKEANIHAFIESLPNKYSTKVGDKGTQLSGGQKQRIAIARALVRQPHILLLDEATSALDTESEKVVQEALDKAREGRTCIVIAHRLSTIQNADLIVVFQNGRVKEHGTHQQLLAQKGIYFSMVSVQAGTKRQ
resultType: Inhibition of [3H]vinblastine binding (Table III summary)

CN[C@@H]1C[C@H]2O[C@@](C)([C@@H]1OC)n1c3ccccc3c3c4c(c5c6ccccc6n2c5c31)C(=O)N[C@H]4O [UCN-01, 7-hydroxystaurosporine] : (+)
CO[C@@H]1[C@H](N(C)C(=O)c2ccccc2)C[C@H]2O[C@]1(C)n1c3ccccc3c3c4c(c5c6ccccc6n2c5c31)C(=O)NC4 [CGP 41251, 4'-N-benzoyl staurosporine] : +
Cn1cc(C2=C(c3cn(CCCSC(=N)N)c4ccccc34)C(=O)NC2=O)c2ccccc21 [RO 31 8220] : (+)
CN[C@@H]1C[C@H]2O[C@@](C)([C@@H]1OC)n1c3ccccc3c3c4c(c5c6ccccc6n2c5c31)C(=O)NC4 [staurosporine] : (+)

###

target: P-gp (Homo sapiens); assay: Inhibition of binding of [3H]vinblastine to P-gp in MCF-7/Adr membranes
For each entry below, report its pKi value.
Give bare numbers, as −log10 of the molar value.

CO[C@@H]1[C@H](N(C)C(=O)c2ccccc2)C[C@H]2O[C@]1(C)n1c3ccccc3c3c4c(c5c6ccccc6n2c5c31)C(=O)NC4 [CGP 41251, 4'-N-benzoyl staurosporine] : 7.49

Task item: Requested read-out: pKi. Entry: CN[C@@H]1C[C@H]2O[C@@](C)([C@@H]1OC)n1c3ccccc3c3c4c(c5c6ccccc6n2c5c31)C(=O)NC4 [staurosporine]
Reply: 6.84

###

test system: MCF-7/Adr cells; assay: Inhibition of growth of multidrug-resistant MCF-7/Adr cells, without or with reserpine; format: cell-based, human; settings: IC50 in MCF-7/Adr in the absence of reserpine over IC50 in its presence
resultType: Ratio (-reserpine / +reserpine)

Reference set, count: 3
COc1cccc2c1C(=O)c1c(O)c3c(c(O)c1C2=O)C[C@@](O)(C(=O)CO)C[C@@H]3O[C@H]1C[C@H](N)[C@H](O)[C@H](C)O1 : 16
Cn1cc(C2=C(c3cn(CCCSC(=N)N)c4ccccc34)C(=O)NC2=O)c2ccccc21 : 6.4
CN[C@@H]1C[C@H]2O[C@@](C)([C@@H]1OC)n1c3ccccc3c3c4c(c5c6ccccc6n2c5c31)C(=O)N[C@H]4O [UCN-01, 7-hydroxystaurosporine] : 3.5

Okay, now this molecule:
Task item: Field: Ratio (-reserpine / +reserpine) (MCF-7/Adr cells). Entry: CN(C)CCCn1cc(C2=C(c3c[nH]c4ccccc34)C(=O)NC2=O)c2ccccc21 [GF 109203X]
Reply: 1.5
